Data provenance: PubChem BioAssay (NCI)

# Tested on: MDA-MB-435
# assay_explanation: NCI tumour cell line growth inhibition, 48 h
property_label: TGI

With MDA-MB-435 as the test system, `CSC(=Nc1nnc(-c2ccc([N+](=O)[O-])cc2)s1)SC` showed TGI of > 100 µM

With MDA-MB-435 as the test system, `CN(C)CCCNC(=O)c1c(O)c2ccccc2[nH]c1=O` showed TGI of > 100 µM

With MDA-MB-435 as the test system, `N#Cc1ccc(OCc2nc(N)nc(N)c2-c2ccc(Cl)c(Cl)c2)cc1` showed TGI of > 100 µM

With MDA-MB-435 as the test system, COc1cc(C(O)CCBr)c(OC)cc1C (centres undefined) showed TGI of > 42.6 µM

---

# Tested on: MCF7 breast
# assay_explanation: NCI tumour cell line growth inhibition, 48 h
property_label: TGI

{"compound": "CC(=O)N1C(OC(C)C)CC(C)N1c1ccccc1 (stereo not drawn)", "measured_target": "MCF7 breast", "TGI": "> 10 µM"}
{"compound": "CC(=O)OC/C=C/[C@H](O[Si](C)(C)C(C)(C)C)[C@@H](O)/C=C/COC(C)=O", "measured_target": "MCF7 breast", "TGI": "> 100 µM"}

# context switch: different compound, same TGI
Measured TGI, Cc1cc(-c2cccc3ccccc23)c(C#N)c(=S)n1C1OC(CO)C(O)C(O)C1O (stereo not drawn) : > 100 µM

---

# Test system: COLO 205 colon
# assay_explanation: NCI tumour cell line growth inhibition, 48 h
Each record here notes measured GI50.

{"compound_structure": "C=CCN=c1sc2c(n1NC(=O)c1cc3ccc1CCc1ccc(cc1)CC3)C(=O)c1ccccc1C2=O", "measured_target": "COLO 205 colon", "GI50": "1.94 µM"}

Measured GI50, `Cc1nnn[n-]1.N.N.N.N.N.[Cl-].[Co+3]` : > 100 µM

Measured GI50, `COc1ccc2[nH]cc(-c3ccc(-c4c[nH]c5ccc(OC)cc45)s3)c2c1` : 4.68 µM

Measured GI50, `O=C(CCCCCCNC(=O)c1cnc(N(c2ccccc2)c2ccccc2)nc1)NO` : 1.79 µM

Measured GI50, `CN1CCC2(CC1)ONC1=NCCN12` : 31.1 µM

Measured GI50, `N#Cc1ccc(OCc2nc(N)nc(N)c2-c2ccc(Cl)c(Cl)c2)cc1` : 4.02 µM

---

# Tested on: OVCAR-4 ovarian
# assay_explanation: NCI tumour cell line growth inhibition, 48 h
Each record here notes measured GI50.

Observe how each entry below is paired with its result.
{"compound_structure": "COC(=O)c1ccc(-c2nc3cc(Cl)c(Cl)cc3nc2C#N)cc1", "GI50": "> 100 µM"}
{"compound_structure": "CCOC(=O)N1CCN(/[N+]([O-])=N/Oc2ccc([N+](=O)[O-])cc2[N+](=O)[O-])CC1", "GI50": "0.438 µM"}
{"compound_structure": "COc1ccc(-c2nn(-c3cccc(Cl)c3)cc2-c2cc(-c3cccs3)[nH]c(=S)n2)cc1", "GI50": "3.47 µM"}
{"compound_structure": "C=CCN=c1sc2c(n1NC(=O)c1cc3ccc1CCc1ccc(cc1)CC3)C(=O)c1ccccc1C2=O", "GI50": "1.26 µM"}
{"compound_structure": "N=C1C(c2nc3ccccc3s2)=C(O)CN1c1ccc(F)c(Cl)c1", "GI50": "20.5 µM"}

Measured GI50, `Oc1c(-c2nnc(-c3ccccc3Cl)o2)sc2nnc(-c3ccccc3)c(-c3ccccc3)c12` : 4.49 µM

Measured GI50, `COc1ccc(/C=C/C(=O)c2cc(OC)c(OC)c(OC)c2)cc1OCc1cn(Cc2ccc(F)cc2)nn1` : 3.42 µM

---

# System: SF-539 CNS
# assay_explanation: NCI tumour cell line growth inhibition, 48 h
Each record here notes measured TGI.

Observe how each entry below is paired with its result.
{"compound": "CNC(=O)Nc1nc2ccc([N+](=O)[O-])cc2[nH]1", "TGI": "> 100 µM"}
{"compound": "CN1CCC2(CC1)ONC1=NCCN12", "TGI": "> 100 µM"}
{"compound": "O=C(c1ccccc1)c1ccccc1-c1ccccc1", "TGI": "15.3 µM"}
{"compound": "NC(=O)C(=O)N/N=C1\\C(=O)N(c2ccc(Cl)cc2Cl)C(=O)C1C(=O)Nc1ccc(Cl)cc1Cl (stereo unspecified)", "TGI": "> 100 µM"}
{"compound": "C/C(N=NS(=O)(=O)c1ccccc1)=C1\\C=CC=CN1O", "TGI": "> 100 µM"}
{"compound": "O=C(O)CN(CC(=O)O)Cc1cc(C#Cc2ccc(C#Cc3ccccc3)cc2)cc(CN(CC(=O)O)CC(=O)O)n1", "TGI": "59.3 µM"}
{"compound": "CCOC(=O)NC(Nc1ncccn1)(C(=O)OCC)C(F)(F)F (stereo unspecified)", "TGI": "> 100 µM"}
{"compound": "CC1OC(OC2C(O)COC(OC3C(C)OC(OC4C(OC(=O)[C@]56CCC(C)(C)C[C@@H]5C5=CCC7[C@@]8(C)C[C@H](O)[C@H](OC9OC(CO)C(O)C(OC%10OC(CO)C(O)C(O)C%10O)C9O)[C@@](C)(CO)[C@@H]8CC[C@@]7(C)[C@]5(C)CC6)OCC(O)C4O)C(O)C3OC3OCC(O)(CO)C3O)C2O)C(O)C(O)C1O (stereo partly specified)", "TGI": "17.5 µM"}
{"compound": "CC[C@@]1(O)C(=O)OCc2c1cc1n(c2=O)Cc2c-1nc1ccccc1c2/C=N\\NC(=O)C(N)CO (stereo partly specified)", "TGI": "0.763 µM"}
{"compound": "Cc1cc2c(cc1Cl)SC(NNC(=O)c1ccco1)=NS2(=O)=O", "TGI": "> 10 µM"}

Measured TGI, `O=c1c2ccccc2nc(-c2cc3c(cc2Cl)Sc2nccn2S3(=O)=O)n1-c1ccccc1` : 40.5 µM

---

# Tested on: UACC-257 melanoma
# assay_explanation: NCI tumour cell line growth inhibition, 48 h
property_label: TGI

Observe how each entry below is paired with its result.
{"molecule": "C=CCOc1cc(NC(=S)c2ccoc2C)ccc1OC", "property_label": "TGI", "result": "> 100 µM"}
{"molecule": "O=C(O)c1cc(CC2Cc3cc4c(cc3C2=O)CCC4)cc2c1CCC2 (stereo unspecified)", "property_label": "TGI", "result": "> 100 µM"}
{"molecule": "COC(=O)/C=C\\COCC1C2CCC(=O)C21 (stereo unspecified)", "property_label": "TGI", "result": "> 25 µM"}
{"molecule": "Cc1cc2c(cc1C)OC(=O)CC2", "property_label": "TGI", "result": "> 100 µM"}
{"molecule": "CC[C@@]1(O)C(=O)OCc2c1cc1n(c2=O)Cc2c-1nc1ccccc1c2/C=N\\NC(=O)C(N)CO (stereo partly specified)", "property_label": "TGI", "result": "> 65.8 µM"}

# context switch: different molecule, same TGI
With UACC-257 melanoma as the test system, CC1CCC2(O)C3(C)CC4(O)OC2(C1O)C1(O)C3(O)C(OC(=O)c2ccc[nH]2)C(O)(C(C)C)C41C (stereo unspecified) showed TGI of > 100 µM

---

Each record here notes measured GI50.
# System: NCI/ADR-RES ovarian
# assay_explanation: NCI tumour cell line growth inhibition, 48 h

Observe how each entry below is paired with its result.
{"molecule": "CCOC(=O)/C(C=Nc1ccc(-c2nc3ccccc3[nH]2)cc1)=C(/C)O", "GI50": "13 µM"}
{"molecule": "ClCc1cccc2c(CCl)cccc12", "GI50": "2.58 µM"}
{"molecule": "COC(=O)c1ccc(-c2nc3cc(Cl)c(Cl)cc3nc2C#N)cc1", "GI50": "> 100 µM"}
{"molecule": "C[C@]12CC[C@@H]3c4ccc(OC(=O)N(CCCl)CCCl)cc4CC[C@H]3[C@@H]1CC[C@@H]2O", "GI50": "1.92 µM"}
{"molecule": "CCN(Cc1ccc(Cl)cc1)c1ccc(CO)c(Cl)c1", "GI50": "5.59 µM"}
{"molecule": "CCOC(=O)N1CCN(/[N+]([O-])=N/Oc2ccc([N+](=O)[O-])cc2[N+](=O)[O-])CC1", "GI50": "3.88 µM"}
{"molecule": "OC(Cc1ccncc1)C(Cl)(Cl)Cl (stereo not drawn)", "GI50": "> 100 µM"}

# context switch: different molecule, same GI50
Measured GI50, C[C@]12C[C@H](CCCCCCNCCOC(=O)NCCCc3ccc(N(CCCl)CCCl)cc3)C3=C4CCC(=O)C=C4CCC3C1CC[C@@H]2O (stereo partly drawn) : 14 µM

---

# Test system: HL-60(TB) leukemia
# assay_explanation: NCI tumour cell line growth inhibition, 48 h
Each record here notes measured TGI.

{"molecule": "N.N.N.N.N.NC(=O)c1nn[n-]n1.[Cl-].[Co+3]", "result": "> 100 µM"}

With HL-60(TB) leukemia as the test system, `CC1(C)CC(C2=NCCO2)CC(C)(C)N1` showed TGI of > 100 µM

With HL-60(TB) leukemia as the test system, O=C(O)c1cc(CC2Cc3cc4c(cc3C2=O)CCC4)cc2c1CCC2 (stereo unspecified) showed TGI of > 100 µM

With HL-60(TB) leukemia as the test system, `Cc1nnn[n-]1.N.N.N.N.N.[Cl-].[Co+3]` showed TGI of > 100 µM

With HL-60(TB) leukemia as the test system, `O=c1cc(-c2ccccc2)c2ccccc2[nH]1` showed TGI of > 100 µM
